# Read-out: Cytochrome P450 2C19 (Homo sapiens) (UniProt P33261)
# Sequence (P33261 whole entry, looked up): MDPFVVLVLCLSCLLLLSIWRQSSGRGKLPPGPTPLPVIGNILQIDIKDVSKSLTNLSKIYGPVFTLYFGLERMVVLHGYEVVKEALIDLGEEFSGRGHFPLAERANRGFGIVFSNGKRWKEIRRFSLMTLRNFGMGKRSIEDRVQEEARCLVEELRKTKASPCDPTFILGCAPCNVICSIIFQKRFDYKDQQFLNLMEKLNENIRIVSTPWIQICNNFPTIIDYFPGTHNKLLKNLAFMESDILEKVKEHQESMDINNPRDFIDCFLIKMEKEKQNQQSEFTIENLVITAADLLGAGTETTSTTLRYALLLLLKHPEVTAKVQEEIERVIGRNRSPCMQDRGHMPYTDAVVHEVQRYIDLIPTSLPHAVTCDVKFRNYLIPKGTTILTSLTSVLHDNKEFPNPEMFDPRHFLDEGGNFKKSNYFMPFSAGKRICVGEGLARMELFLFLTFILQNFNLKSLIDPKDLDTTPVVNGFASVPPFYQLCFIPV
# PROCEDURE DETAILS: LTEA_HepaRG_CYP2C19: Life Technologies and Expression Analysis (LTEA) Assay for CYP2C19 using HepaRG (AID 2283482)
# PARTICULARS: mRNA level, 48 h; actives raise or lower the signal
Activity calls are given as the source filed them. Rule for the calls: active = hit-call score of the fitted dose curve at least 0.9, where 1 is the maximum; inactive = score below 0.9.
MEASURED PROPERTY: AC50

# count of solved cases: 5
• COC(=O)c1ccccc1O = inactive
• COCCOc1cc2cc(C(=O)NC3CCN(C(C)C)CC3)n(CC(=O)Nc3ccc(Cl)cn3)c2cn1 = 66.8 µM (active)
• Nc1nc2ncc(CNc3ccc(C(=O)N[C@@H](CCC(=O)O)C(=O)O)cc3)nc2c(=O)[nH]1 = inactive
• CCCCCCCCO = inactive
• CCCN(C1CCN(C(=O)C2CCNCC2)CC1)[C@@H]1CCc2ccc(OC)cc2C1 = 86.3 µM (active)

`CC(C)c1cccc(C(C)C)c1N1C(=O)c2ccc(O)cc2C1=O` yielded AC50 of 91.5 µM (active)

# AC50 of `CCn1nc(Cc2ccccc2)cc1C1CCN(C[C@H]2C[C@H](N(C)[C@@H](C(=O)O)C(C)C)C[C@@H]2c2cccc(F)c2)CC1` = 17.6 µM (active)

Query `CC(C)CCCCCCCOC(=O)CCCCC(=O)OCCCCCCCC(C)C` yields AC50 of inactive

Recorded result, `CNCc1ccc(NC(=O)c2c[nH]c3c2C(=O)CCC3)cc1` , AC50: inactive

get_value(item= COc1ccc(-n2nc(C(F)F)cc2-c2ccc(S(C)=O)cc2)cc1 (stereo unspecified) , readout=AC50) returns 26.8 µM (active)

Lookup result for `Cc1ccc(S(=O)(=O)O)cc1C` ; measured AC50: inactive

----------
# Read-out: Vascular cell adhesion molecule 1 (VCAM1), VCAM1 (gene 7412)
# PROCEDURE DETAILS: BSK_LPS_VCAM1: BioMAP Diversity Plus: LPS Assay for Vascular cell adhesion molecule 1 (VCAM1) Biomarker Activity (AID 2283086)
# PARTICULARS: primary human HUVEC with PBMC; actives raise or lower the signal
Calls of active or inactive are those of the source. The calls were made as follows: active = hit-call score of the fitted dose curve at least 0.9, where 1 is the maximum; inactive = score below 0.9.
Answer with one of the outcomes given here: active, inactive

# count of solved cases: 8
- O=C(CCCCCCCCc1cccnc1)N1CCC(C=C(c2ccccc2)c2ccccc2)CC1: active
- CC(O)CN(CCN(CC(C)O)CC(C)O)CC(C)O (centres undefined): inactive
- CC(=O)c1ccc2c(c1)[C@H](NC(=O)c1ccc(F)cc1)[C@@H](O)C(C)(C)O2: inactive
- CC[C@H]1CC[C@H](NCc2cc3c(cc2OC)[C@H]2C[C@H]2C(=O)N3C)[C@H](c2ccccc2)N1: inactive
- COc1cccc(-c2ccc(/C=C\CN3CCCCCC3)cc2Cl)c1: active
- CCOCCOCCOCCO: inactive
- CCCCCCCCCCCCCCCO: active
- O=P(OC(CCl)CCl)(OC(CCl)CCl)OC(CCl)CCl: inactive

Problem: Could you please tell me the result logged for `O=C(NS(=O)(=O)/C=C/c1ccccc1)c1ccc(F)cc1Cl` in this assay?
Solution: inactive

Problem: Entry O=C1OC(=O)C2C3C=CC(C3)C12 (centres undefined) : call = ?
Solution: inactive

Problem: Test call for this compound, please: `CC(=O)OCCC(C)C`
Solution: inactive

Problem: Hello, I am checking results. What call was entered for `CC[C@H](C)C(=O)O[C@H]1C[C@@H](C)C=C2C=C[C@H](C)[C@H](CC[C@@H]3C[C@@H](O)CC(=O)O3)[C@H]21` ?
Solution: active

Problem: Tell me the recorded outcome of this test for `CC(=O)OC[C@H]1O[C@@](COC(C)=O)(O[C@H]2O[C@H](COC(C)=O)[C@@H](OC(C)=O)[C@H](OC(C)=O)[C@H]2OC(C)=O)[C@@H](OC(C)=O)[C@@H]1OC(C)=O` .
Solution: inactive

----------
# Read-out: Signal transducer and activator of transcription 3 (Homo sapiens) (UniProt P40763)
# Sequence (P40763 whole entry, looked up): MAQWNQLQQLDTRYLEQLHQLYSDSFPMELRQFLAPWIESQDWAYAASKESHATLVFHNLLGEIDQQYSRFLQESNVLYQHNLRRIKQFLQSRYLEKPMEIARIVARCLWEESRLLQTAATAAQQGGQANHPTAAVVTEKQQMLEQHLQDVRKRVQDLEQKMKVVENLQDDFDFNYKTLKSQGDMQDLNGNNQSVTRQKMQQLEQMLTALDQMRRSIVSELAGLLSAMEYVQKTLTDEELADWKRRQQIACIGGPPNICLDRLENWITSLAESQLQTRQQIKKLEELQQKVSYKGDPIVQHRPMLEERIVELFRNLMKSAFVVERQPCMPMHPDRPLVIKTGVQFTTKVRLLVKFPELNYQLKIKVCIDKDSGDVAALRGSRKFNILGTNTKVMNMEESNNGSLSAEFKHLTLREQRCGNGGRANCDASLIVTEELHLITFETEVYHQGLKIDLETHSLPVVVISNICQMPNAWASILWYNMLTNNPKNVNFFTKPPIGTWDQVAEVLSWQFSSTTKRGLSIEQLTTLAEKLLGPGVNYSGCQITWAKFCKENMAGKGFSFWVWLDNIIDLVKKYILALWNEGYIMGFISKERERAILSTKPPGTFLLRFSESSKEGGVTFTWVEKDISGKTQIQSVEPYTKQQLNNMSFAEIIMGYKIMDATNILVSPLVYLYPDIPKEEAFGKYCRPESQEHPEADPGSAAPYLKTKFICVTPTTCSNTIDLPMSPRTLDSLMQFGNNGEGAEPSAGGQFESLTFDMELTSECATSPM
# PROCEDURE DETAILS: LTEA_HepaRG_STAT3: Life Technologies and Expression Analysis (LTEA) Assay for Signal transducer and activator of transcription (STAT3) using HepaRG (AID 2283529)
# PARTICULARS: mRNA level, 48 h; actives raise or lower the signal
The source made the active and inactive calls. Rule for the calls: active = hit-call score of the fitted dose curve at least 0.9, where 1 is the maximum; inactive = score below 0.9.
Please reply with one of these outcomes: active, inactive

Example entries begin here.
* Nc1nc2ncc(CNc3ccc(C(=O)N[C@@H](CCC(=O)O)C(=O)O)cc3)nc2c(=O)[nH]1 | inactive
* CCc1cc(SCc2sc(-c3ccc(C(F)(F)F)cc3)nc2CN2CCN(c3ccc(OC)cc3)CC2)ccc1OCC(=O)O | active
* CCCCC(CC)COC(=O)CCCCCCCCC(=O)OCC(CC)CCCC (centres undefined) | inactive
* COC(=O)CC(=O)OC | inactive

Problem: Name the outcome recorded for `O=C1CCCCCN1` in the assay.
Solution: inactive

Problem: Name the outcome recorded for CC(O)CN(CCN(CC(C)O)CC(C)O)CC(C)O (centres undefined) in the assay.
Solution: inactive

Problem: Test call, this molecule: `Cn1c(=O)cc(Oc2ccc(F)cc2F)c2cnc(NCC(C)(C)O)nc21`
Solution: inactive

Problem: State the result this test recorded for `CC1=CC(=O)CC(C)(C)C1` .
Solution: inactive

----------
# Read-out: Cytochrome P450 (CYP1A1), CYP1A1 (gene 1543)
# PROCEDURE DETAILS: LTEA_HepaRG_CYP1A1: Life Technologies and Expression Analysis (LTEA) Assay for Cytochrome P450 (CYP1A1) using HepaRG (AID 2283454)
# PARTICULARS: mRNA level, 48 h; actives raise or lower the signal
Activity calls are given as the source filed them. The calls were made as follows: active = hit-call score of the fitted dose curve at least 0.9, where 1 is the maximum; inactive = score below 0.9.
Please reply with one of these outcomes: true = active, false = inactive

Check out these entries, answers already filled in.
• CC(=O)OC[C@H]1O[C@@](COC(C)=O)(O[C@H]2O[C@H](COC(C)=O)[C@@H](OC(C)=O)[C@H](OC(C)=O)[C@H]2OC(C)=O)[C@@H](OC(C)=O)[C@@H]1OC(C)=O = true
• O=C1CCCCCN1 = false
• O=C1OC(=O)C2C3C=CC(C3)C12 (configuration not stated) = true
• CNS(=O)(=O)c1cc(C(=O)N2CCC(CCN3C4CCC3CC(n3c(C)nc5ccccc53)C4)(c3cccc(F)c3)CC2)c(Cl)cc1F (configuration not stated) = false

Problem: # fetch the recorded call for CC(C)=CCCC(C)CCO (configuration not stated) here
Solution: true

Problem: # lookup: test call for Fc1ccccc1[C@@H](F)COC1CCC(Nc2ncnc3[nH]ncc23)CC1 (some centres not stated)
Solution: true

Problem: For `O=C(OC[C@H]1O[C@@H](OC(=O)c2cc(O)c(O)c(OC(=O)c3cc(O)c(O)c(O)c3)c2)[C@H](OC(=O)c2cc(O)c(O)c(OC(=O)c3cc(O)c(O)c(O)c3)c2)[C@@H](OC(=O)c2cc(O)c(O)c(OC(=O)c3cc(O)c(O)c(O)c3)c2)[C@@H]1OC(=O)c1cc(O)c(O)c(OC(=O)c2cc(O)c(O)c(O)c2)c1)c1cc(O)c(O)c(OC(=O)c2cc(O)c(O)c(O)c2)c1` , which call appears in the assay record?
Solution: true

Problem: Assay result, entry CC(C)CC(C)(O)C#CC(C)(O)CC(C)C (configuration not stated) — outcome?
Solution: true

Problem: Test call for this compound, please: `Nc1nc2ncc(CNc3ccc(C(=O)N[C@@H](CCC(=O)O)C(=O)O)cc3)nc2c(=O)[nH]1`
Solution: true

Problem: // outcome(item) with item = `CCOc1cccc(-n2cc(C(=O)N3CCN(c4cc(C(=O)O)c5ccccc5c4)CC3)nc2-c2ccc(C)cc2)c1`
Solution: true

Problem: # lookup: test call for `CCCC(=O)OCC`
Solution: true

Problem: # lookup: test call for `CN(C)c1ccc(Cc2ccc(N(C)C)cc2)cc1`
Solution: true

Problem: What was the test verdict on `CC[C@H]1OC(=O)[C@H](C)[C@@H](O[C@H]2C[C@@](C)(OC)[C@@H](O)[C@H](C)O2)[C@H](C)[C@@H](O[C@@H]2O[C@H](C)C[C@H](N(C)C)[C@H]2O)[C@](C)(O)C[C@@H](C)C(=O)[C@H](C)[C@@H](O)[C@]1(C)O` ?
Solution: true

Problem: What did the test return for `Cc1c(-c2cccnc2)c2ccccc2n1CCCCC(=O)O` ?
Solution: true

Problem: Entry `CNCc1ccc(NC(=O)c2c[nH]c3c2C(=O)CCC3)cc1` : call = ?
Solution: true

Problem: Assay outcome for `O=C(NS(=O)(=O)/C=C/c1ccccc1)c1ccc(F)cc1Cl` : what was it?
Solution: true

Problem: // return assay outcome for `C1N2CN3CN1CN(C2)C3`
Solution: true
